Target: human leukocyte cathepsin G (hCG) (Homo sapiens, UniProt P08311)
Construct: Neutrophils (1.4 billion) were isolated from whole blood obtained from a single healthy laboratory donor; from tissue; host or cells: neutrophils from whole blood of a single healthy donor
Sequence (P08311 21-243 limits assumed): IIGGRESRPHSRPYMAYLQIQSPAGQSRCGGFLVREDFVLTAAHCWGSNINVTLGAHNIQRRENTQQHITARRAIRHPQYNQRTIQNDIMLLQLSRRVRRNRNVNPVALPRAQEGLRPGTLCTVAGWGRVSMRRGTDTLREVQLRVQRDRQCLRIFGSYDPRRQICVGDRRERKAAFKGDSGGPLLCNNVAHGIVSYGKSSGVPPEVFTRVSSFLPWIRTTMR
Experiment: In vitro inhibition of hCG (cleavage of Suc-AAPF-NA)
Format: biochemical
Details: hCG Ki [μM], Table 2; substrate Suc-AAPF-NA 600 μM, pH 7.4
Where a SMILES comes first, the peptide text is derived from it.
Observed Property: Ki

QUERY: May I ask what Ki has been recorded for CC[C@H](C)[C@H](NC(=O)[C@H](C)NC(=O)[C@H](CCCCN)NC(=O)[C@H](CO)NC(=O)[C@H](Cc1c[nH]c2ccccc12)NC(=O)[C@H](Cc1ccccc1)NC(=O)[C@@H](NC(=O)[C@H](CC(C)C)NC(=O)[C@@H](NC(=O)[C@@H](N)CCC(=O)O)[C@@H](C)CC)[C@@H](C)CC)C(=O)NCC(=O)N[C@@H](Cc1ccc(O)cc1)C(=O)N[C@@H](CO)C(=O)N[C@@H](Cc1ccccc1)C(=O)N[C@H](C(=O)O)[C@@H](C)O [Peptide 22] (H-EILIFWSKAIGYSFT-OH; N-terminus and C-terminus assumed) ?
RESULT: 5.5 µM

QUERY: Quick one: Ki for CC[C@H](C)[C@H](NC(=O)[C@H](CCC(=O)O)NC(=O)[C@H](CCCCN)NC(=O)[C@H](CO)NC(=O)[C@H](Cc1c[nH]c2ccccc12)NC(=O)[C@H](Cc1ccccc1)NC(=O)[C@@H](NC(=O)[C@H](CC(C)C)NC(=O)[C@@H](NC(=O)[C@@H](N)CCC(=O)O)[C@@H](C)CC)[C@@H](C)CC)C(=O)NCC(=O)N[C@@H](Cc1ccc(O)cc1)C(=O)N[C@@H](CO)C(=O)N[C@@H](Cc1ccccc1)C(=O)N[C@H](C(=O)O)[C@@H](C)O [Peptide 23] (H-EILIFWSKEIGYSFT-OH; N-terminus and C-terminus assumed) ?
RESULT: 0.85 µM

QUERY: Any idea what Ki was measured for CC[C@H](C)[C@H](NC(=O)[C@H](CC(C)C)NC(=O)[C@@H](NC(=O)[C@@H](N)CCC(=O)O)[C@@H](C)CC)C(=O)N[C@@H](Cc1ccccc1)C(=O)N[C@@H](Cc1c[nH]c2ccccc12)C(=O)N[C@@H](CO)C(=O)N[C@@H](CCCCN)C(=O)O [Peptide 15, Glu-Ile-Leu-Ile-Phe-Trp-Ser-Lys] (H-EILIFWSK-OH) ?
RESULT: > 200 µM

QUERY: Recorded Ki of CC[C@H](C)[C@H](NC(=O)[C@H](CC(=O)O)NC(=O)[C@H](CCCCN)NC(=O)[C@@H](N)CO)C(=O)NCC(=O)N[C@@H](Cc1ccc(O)cc1)C(=O)N[C@@H](CO)C(=O)O [Peptide 16, Ser-Lys-Asp-Ile-Gly-Tyr-Ser] (H-SKDIGYS-OH) , please.
RESULT: > 200 µM

QUERY: Record request: Ki value, item CC[C@H](C)[C@H](N)C(=O)N[C@@H](Cc1ccccc1)C(=O)N[C@@H](Cc1c[nH]c2ccccc12)C(=O)N[C@@H](CO)C(=O)N[C@@H](CCCCN)C(=O)N[C@@H](CC(=O)O)C(=O)N[C@H](C(=O)NCC(=O)N[C@@H](Cc1ccc(O)cc1)C(=O)N[C@@H](CO)C(=O)N[C@@H](Cc1ccccc1)C(=O)N[C@H](C(=O)O)[C@@H](C)O)[C@@H](C)CC [Peptide 12] (H-IFWSKDIGYSFT-OH)
RESULT: > 200 µM
